# test_name: Measurement of interfacial tension (polarity index) of emollients
# Type: physicochemical
# applied_conditions: Tensimat Densimat TD2000
Counter-ions that a name gives are not always drawn.

compound	polarity index (mN/m)
CC(C)OC(=O)CCCCCCCCC(=O)OC(C)C [diisopropyl sebacate]	19
CCCCCCCCCCC(CO)CCCCCCCC (centres unmarked) [octyldodecanol]	25
CCOC(=O)CC(O)(CC(=O)OCC)C(=O)OCC [triethyl citrate]	7
CC(C)OC(=O)CCCCC(=O)OC(C)C [diisopropyl adipate]	12
CCCCOC(=O)CCCCC(=O)OCCCC [dibutyl adipate]	14
C[Si]1(C)O[Si](C)(C)O[Si](C)(C)O[Si](C)(C)O[Si](C)(C)O1 [cyclopentasiloxane]	32
O=C(OCCc1ccccc1)c1ccccc1 [phenethyl benzoate]	19
CCCCOC(=O)CC(O)(CC(=O)OCCCC)C(=O)OCCCC [tributyl citrate]	10
